# System: RPMI-8226 leukemia
# EXPERIMENT: NCI-60 one-dose screen, 48 h (100 = growth as untreated, 0 = no growth, -100 = all killed)
# SETTINGS: 10 µM unless noted
About 83,000 compounds went through this panel and 20% of them were active in at least one assay; those are over-represented in the sample as a whole. Calls of active or inactive are those of the source. Rule for the calls: active = growth percent below 10; inactive = the rest.
Provide the reported growth of each item.

- Cc1ccc(S(=O)(=O)Nc2ccc(-c3cc(-c4cccc(F)c4)c(C#N)c(=O)[nH]3)cc2)cc1: 19.4% (inactive)
- C=C(C)[C@@H]1CC[C@]2(/C=N/Nc3ccncc3)CC[C@]3(C)[C@H](CC[C@@H]4[C@@]5(C)CCCNC(C)(C)[C@@H]5CC[C@]43C)[C@@H]12: 28.7% (inactive)

Hey, quick one: what's growth for each of these?
1. NC1=C(C/C(N)=N\O)C(c2ccccc2Cl)c2c(ccc3ccccc23)O1 (stereo not drawn)
2. COc1ccc(-c2cc(-c3c(C)oc4cc5occc5c(OC)c4c3=O)nc(N)c2C#N)cc1OC
3. Clc1ccc(Cn2cc(-c3nc4ccc(Br)nc4n3Cc3ccc(Cl)cc3)c3cccnc32)cc1
4. Cc1cc(C=O)c(C)c2c1[nH]c1ccccc12

Result:
1. 81.9% (inactive)
2. 55.2% (inactive)
3. 67.6% (inactive)
4. 93.9% (inactive)
